System: A549 NSCLC
Test: NCI tumour cell line growth inhibition, 48 h
reported-endpoint: TGI

Answered examples (6):
>  <molecule>
Cc1ccc(S(=O)(=O)NN=C2C(C)(C)CC2(C)C)cc1

>  <TGI>
> 100 µM

$$$$
>  <molecule>
COC(=O)C1CC(c2ccc(Cl)cc2)=NO1 (stereo not drawn)

>  <TGI>
> 100 µM

$$$$
>  <molecule>
COc1ccc2nc3cc(Cl)ccc3c(NCCNCC(O)CO)c2c1 (stereo not drawn)

>  <TGI>
14.1 µM

$$$$
>  <molecule>
O=C(CN1CCN(CCN2C(=O)c3cccc4cccc(c34)C2=O)CC1)Nc1ccc2ncsc2c1

>  <TGI>
15.4 µM

$$$$
>  <molecule>
O=C(O)c1ccc(NCc2nc3ccccc3[nH]2)cc1

>  <TGI>
> 100 µM

$$$$
>  <molecule>
OCC1C2CCC3(OCCO3)C12 (stereo not drawn)

>  <TGI>
> 100 µM

$$$$

Lookup: // Input: COc1ccc(C2=NN(C=O)C(c3ccc(OS(=O)(=O)c4ccc(C)cc4)c(OC)c3)C2)cc1 (stereo not drawn) . Output its TGI only.
Found: > 100 µM

Lookup: // Input: Cc1ccccc1C=NC12CC3CC(CC(C3)C1)C2 . Output its TGI only.
Found: > 100 µM

Lookup: // Input: O=c1oc2ccc3ccccc3c2cc1-c1nc(-c2ccc([N+](=O)[O-])cc2)n[nH]1 . Output its TGI only.
Found: > 100 µM
